- target.or.test.system: UniProtKB P03372
- Sequence (whole entry): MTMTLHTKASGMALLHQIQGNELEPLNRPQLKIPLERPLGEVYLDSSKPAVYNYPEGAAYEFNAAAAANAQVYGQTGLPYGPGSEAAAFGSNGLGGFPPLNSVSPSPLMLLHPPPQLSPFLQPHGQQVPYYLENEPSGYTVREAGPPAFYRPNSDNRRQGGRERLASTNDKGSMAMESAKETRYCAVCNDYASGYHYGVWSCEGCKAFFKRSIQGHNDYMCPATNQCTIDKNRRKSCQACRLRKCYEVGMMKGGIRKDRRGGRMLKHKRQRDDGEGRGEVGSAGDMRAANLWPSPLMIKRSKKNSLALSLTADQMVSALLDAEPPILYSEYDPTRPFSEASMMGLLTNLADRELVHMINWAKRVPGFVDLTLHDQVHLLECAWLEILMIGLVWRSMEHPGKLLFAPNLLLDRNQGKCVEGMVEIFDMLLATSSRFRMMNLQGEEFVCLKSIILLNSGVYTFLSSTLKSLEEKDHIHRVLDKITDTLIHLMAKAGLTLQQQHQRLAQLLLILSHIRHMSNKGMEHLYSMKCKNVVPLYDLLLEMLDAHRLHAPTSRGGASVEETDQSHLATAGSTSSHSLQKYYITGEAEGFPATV
- assay.comment: Agonist activity at human ERalpha expressed in HepG2 cells up to 10^-5 M after 24 hrs by luciferase reporter gene assay relative to E2
- Format: functional, cell-based
We begin with a simple list: items and their reported Activity.
// return numeric value only (unit: %, not printed)

Below, each entry is followed by its recorded Activity result.
Problem: Reported Activity for Cc1cc(O)ccc1C1=C(c2ccc(O)cc2C)[C@H]2[C@H]3C(=O)N(c4ccccc4)C(=O)[C@H]3[C@@H]1[S+]2[O-] (mixture of isomers) : what is it?
Solution: 65

Problem: Reported Activity for Cc1ccc(C2=C(c3ccc(C)cc3)[C@H]3[C@@H](S(=O)(=O)Oc4ccc(O)cc4)C[C@@H]2[S+]3[O-])cc1 (relative stereo) : what is it?
Solution: 24

Problem: Reported Activity for Cc1cc(C2=C(c3ccc(O)c(C)c3)[C@H]3[C@@H](S(=O)(=O)Oc4ccccc4F)C[C@@H]2[S+]3[O-])ccc1O (relative stereo) : what is it?
Solution: 55

Continuing:
Problem: Reported Activity for Cc1cc(O)ccc1C1=C(c2ccc(O)cc2C)[C@H]2[C@@H](S(=O)(=O)Oc3cccc4ccccc34)C[C@@H]1[S+]2[O-] (relative stereo) : what is it?
Solution: 59

Problem: Reported Activity for Cc1cc(O)ccc1C1=C(c2ccc(O)cc2C)[C@H]2[C@@H](S(=O)(=O)Oc3ccc(F)cc3)C[C@@H]1[S+]2[O-] (relative stereo) : what is it?
Solution: 74

Problem: Reported Activity for CCOC(=O)[C@@H]1[C@H](C(=O)OCC)[C@@H]2C(c3ccc(O)cc3)=C(c3ccc(O)cc3)[C@H]1[S+]2[O-] (stereo partly specified) : what is it?
Solution: 55

###

- target.or.test.system: UniProt P03372
- assay.comment: Displacement of [3H]estradiol from human ERalpha after 18 to 24 hrs
We begin with a simple list: items and their reported RBA.
// return numeric value only (unit: %, not printed)

Below, each entry is followed by its recorded RBA result.
Problem: Reported RBA for CCOC(=O)[C@@H]1[C@H](C(=O)OCC)[C@@H]2C(c3ccc(O)c(C)c3)=C(c3ccc(O)c(C)c3)[C@H]1[S+]2[O-] (stereo partly specified) : what is it?
Solution: 0.026

Problem: Reported RBA for Cc1cc(O)ccc1C1=C(c2ccc(O)cc2C)[C@H]2[C@@H](S(=O)(=O)Oc3ccccc3)C[C@@H]1[S+]2[O-] (relative stereo) : what is it?
Solution: 8.11

Continuing:
Problem: Reported RBA for Cc1cc(O)ccc1C1=C(c2ccc(O)cc2C)[C@H]2[C@@H](S(=O)(=O)Oc3cccc4ccccc34)C[C@@H]1[S+]2[O-] (relative stereo) : what is it?
Solution: 0.998

Problem: Reported RBA for COc1ccc(OS(=O)(=O)[C@H]2C[C@H]3C(c4ccc(O)cc4)=C(c4ccc(O)cc4)[C@@H]2[S+]3[O-])cc1 (relative stereo) : what is it?
Solution: 0.074

Problem: Reported RBA for Cc1cc(C2=C(c3ccc(O)c(C)c3)[C@H]3[C@H]4C(=O)N(c5ccccc5)C(=O)[C@H]4[C@@H]2[S+]3[O-])ccc1O (mixture of isomers) : what is it?
Solution: 0.009

Problem: Reported RBA for Cc1cc(C2=C(c3ccc(O)c(C)c3)[C@H]3[C@@H](S(=O)(=O)Oc4ccccc4Cl)C[C@@H]2[S+]3[O-])ccc1O (relative stereo) : what is it?
Solution: 1.18
